- Assay system: SMYD3 (Homo sapiens (Human))
- Procedure summary: SMYD3 biochemical assay (SMYD3 enzyme assay on MEKK2 protein substrate, 3H-SAM scintillation proximity assay)
- Conditions used: read-out: SMYD3 Biochem IC50
Parameter measured: IC50

Here is how some compounds turned out for IC50.
NCCC(=O)N[C@H]1CC[C@H](NC(=O)c2cc(O)nc3ccccc23)CC1 [compound 200]
23.3 µM
N[C@H]1CC[C@H](NC(=O)Cn2ccnc2)CC1 [compound 426]
> 100 µM
Cc1cncc(C(=O)N[C@H]2CC[C@H](NC(=O)CCN)CC2)c1 [compound 344]
36.4 µM
N[C@H]1CC[C@H](NC(=O)c2cn3ncccc3n2)CC1 [compound 447]
> 100 µM
NCCC(=O)N[C@H]1CC[C@H](NC(=O)c2ccc(-n3cncn3)cc2)CC1 [compound 473]
53.1 µM
NCCC(=O)N[C@H]1CC[C@H](NC(=O)c2ccc(O)nn2)CC1 [compound 270]
> 100 µM
Cc1ccncc1C(=O)N[C@H]1CC[C@H](N)CC1 [compound 339]
> 100 µM
NCCC(=O)N[C@H]1CC[C@H](NC(=O)c2ccc(N)cn2)CC1 [compound 437]
> 100 µM

Inquiry: Respond only with IC50 recorded for Cn1ccnc1C(=O)N[C@H]1CC[C@H](NC(=O)CCN)CC1 [compound 412]
Reply text: > 100 µM

* * *

- Assay system: SMYD3 (Homo sapiens (Human), UniProt Q9H7B4)
- Sequence (Q9H7B4 whole entry): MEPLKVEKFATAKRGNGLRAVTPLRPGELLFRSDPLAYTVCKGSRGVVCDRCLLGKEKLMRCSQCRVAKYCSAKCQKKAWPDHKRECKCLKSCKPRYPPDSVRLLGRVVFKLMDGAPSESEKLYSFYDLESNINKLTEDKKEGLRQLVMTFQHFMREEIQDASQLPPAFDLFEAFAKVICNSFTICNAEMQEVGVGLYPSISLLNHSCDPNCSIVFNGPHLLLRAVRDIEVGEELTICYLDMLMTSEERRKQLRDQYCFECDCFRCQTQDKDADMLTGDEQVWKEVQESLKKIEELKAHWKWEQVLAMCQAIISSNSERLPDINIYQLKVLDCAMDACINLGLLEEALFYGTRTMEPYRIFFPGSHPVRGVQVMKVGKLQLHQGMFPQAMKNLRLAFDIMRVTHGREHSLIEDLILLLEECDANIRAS
- Procedure summary: SMYD3 cell assay (Trimethyl-MEKK2 In-Cell Western in 293T/17 cells transfected with MEKK2-flag and SMYD3)
- Format: cell-based
- Conditions used: Table 3A; average of n = 1 to n = 50; read-out: SMYD3 cell IC50
- Protocol: Trimethyl-MEKK2-in-Cell Western Assay MEM/Glutamax medium, Optimem Reduced Serum medium, penicillin-streptomycin, 0.05% trypsin and 1×D-PBS were purchased from Life Technologies, Grand Island, N.Y., USA. […] Plasmids were prepared for delivery to cells by first mixing 1350 μL Opti-MEM with Fugene (81 μL) in a sterile Eppendorf and incubated for five minutes at room temperature (RT). […] Room temperature MEM+10% Tet system FBS was added and cells were mixed gently, and counted using the Vi-cell. […]
Counter-ions that a name gives are not always drawn.
Here the recorded IC50 is given for each entry.

N[C@H]1CC[C@@H](S(=O)(=O)N2[C@@H]3CC[C@H]2C[C@@H](NC(=O)c2ccc4c(c2)CC(=O)N4)C3)CC1
2.31 µM

Inquiry: Respond only with IC50 recorded for C[C@H]1Oc2ccc(C(=O)N[C@H]3C[C@H]4CC[C@@H](C3)N4S(=O)(=O)CC3CCNCC3)cc2NC1=O [Cpd. No. 625, Hydrochloride]
Reply text: ≥ 10 µM

Inquiry: Respond only with IC50 recorded for NC1CCN(S(=O)(=O)N2[C@@H]3CC[C@H]2C[C@@H](NC(=O)c2cnn(C4CC4)c2)C3)CC1
Reply text: ≥ 10 µM

* * *

Here the recorded pIC50 is given for each entry.
- Assay system: SMYD2 (Homo sapiens (Human))
- Sequence (Q9NRG4 whole entry): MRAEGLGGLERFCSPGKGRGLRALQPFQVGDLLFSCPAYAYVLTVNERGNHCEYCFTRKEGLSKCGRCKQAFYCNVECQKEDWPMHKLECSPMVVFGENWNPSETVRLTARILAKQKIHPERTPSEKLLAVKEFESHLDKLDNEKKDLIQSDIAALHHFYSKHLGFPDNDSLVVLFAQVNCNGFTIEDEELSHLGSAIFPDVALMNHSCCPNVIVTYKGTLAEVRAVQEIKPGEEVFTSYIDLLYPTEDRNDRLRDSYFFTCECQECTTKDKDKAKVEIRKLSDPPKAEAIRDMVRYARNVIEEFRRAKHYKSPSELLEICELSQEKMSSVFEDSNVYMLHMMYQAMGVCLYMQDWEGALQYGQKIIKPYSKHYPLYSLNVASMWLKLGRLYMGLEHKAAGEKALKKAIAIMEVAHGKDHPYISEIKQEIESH
- Procedure summary: SMYD2 biochemical assay (SMYD2 enzyme assay on peptide substrate, 3H-SAM Flashplate)
- Conditions used: read-out: SMYD2 Biochem IC50; IC50 values are an average of n = 1 to n = 50
// scale note: pIC50 = -log10(conc_M); give the bare number

Here is how some compounds turned out for pIC50.
O=C(NC1CN(CC2CCC2)C1)c1cn(C2CC2)nn1
5.79
CNC(=O)c1ccc(COc2ccc(C(C)N3CC(NC(=O)c4cn(C5CC5)nn4)C3)cc2)cc1 (centres unmarked) [compound 854]
6.02

Inquiry: Respond only with pIC50 recorded for COc1ccc(CN2CC(NC(=O)c3cn(C4CC4)nn3)C2)cc1
Reply text: 5.74

Inquiry: Respond only with pIC50 recorded for O=C(NC1CN(Cc2cn[nH]c2)C1)c1cn(C2CC2)nn1
Reply text: 5.11

Inquiry: Respond only with pIC50 recorded for COc1cccc(C(C)N2CC(NC(=O)c3cc(C4CC4)cnn3)C2)c1 (centres unmarked)
Reply text: 6.16

* * *

- Assay system: SMYD3 (Homo sapiens (Human), UniProt Q9H7B4)
- Procedure summary: SMYD3 cell assay (Trimethyl-MEKK2 In-Cell Western in 293T/17 cells transfected with MEKK2-flag and SMYD3)
- Format: cell-based
- Conditions used: read-out: SMYD3 Cell IC50
Parameter measured: IC50

Here is how some molecules turned out for IC50.
C[C@@H](N)CC(=O)N[C@H]1CC[C@H](NC(=O)c2ccc3c(c2)CC(=O)N3)CC1 [compound 453]
> 40 µM
NCCC(=O)N[C@H]1CC[C@H](NC(=O)c2cc3c(cc2Cl)NC(=O)C3)CC1 [compound 491]
> 40 µM

Below: the item to evaluate.
Inquiry: Respond only with IC50 recorded for CC(NC(=O)c1cc2c(cc1Cl)NC(=O)C2)C1CCN(C(=O)[C@H](C)N)CC1 (stereo partly drawn) [Cpd. No. 490]
Reply text: > 40 µM

* * *

Here the recorded IC50 is given for each entry.
- Assay system: SMYD2 (Homo sapiens (Human))
- Procedure summary: SMYD2 biochemical assay (SMYD2 enzyme assay on peptide substrate, 3H-SAM Flashplate)
- Conditions used: read-out: SMYD2 Biochem IC50; IC50 values are an average of n = 1 to n = 50
Use nM as the unit, but write only the number.

Here is how some compounds turned out for IC50.
Cn1cc(CN2CC(NC(=O)c3cc(C4CC4)cnn3)C2)c(Cl)n1
940
COc1cccc(C(C)N2CC(NC(=O)c3cn(C4CC4)nn3)C2)c1 (centres unmarked)
1450
O=C(NC1CN(Cc2ccccc2)C1)c1cc(C2CC2)cnn1
541

Inquiry: Consider the compound CC(c1ccc2c(c1)NC(=O)CO2)N1CC(NC(=O)c2cn(C3CC3)nn2)C1 (centres unmarked) tested on SMYD2 (Homo sapiens (Human)); state its IC50.
Reply text: 1620

Inquiry: Consider the compound CC(c1ccc(=O)[nH]c1)N1CC(NC(=O)c2cn(C3CC3)nn2)C1 (centres unmarked) tested on SMYD2 (Homo sapiens (Human)); state its IC50.
Reply text: 5400

Inquiry: Consider the compound COc1cccc(Cn2cc(CN3CC(NC(=O)c4cn(C5CC5)nn4)C3)cn2)c1 tested on SMYD2 (Homo sapiens (Human)); state its IC50.
Reply text: 169

Inquiry: Consider the compound COc1ccc(C(C)N2CC(NC(=O)c3cn(C4CC4)nn3)C2)c(Cl)c1 (centres unmarked) [compound 845] tested on SMYD2 (Homo sapiens (Human)); state its IC50.
Reply text: 88

* * *

- Assay system: SMYD3 (Homo sapiens (Human), UniProt Q9H7B4)
- Procedure summary: SMYD3 biochemical assay (SMYD3 enzyme assay on MEKK2 protein substrate, 3H-SAM scintillation proximity assay)
- Conditions used: read-out: SMYD3 Biochem IC50 (μM)*
Bucketed by reported IC50, buckets being Low = under 80 µM, Medium = from 80 µM up to 100 µM, High = 100 µM and over

Worked examples, 6 compounds total:
N[C@H]1CC[C@H](NC(=O)c2ccc3ncsc3c2)CC1
High
CC(=O)Nc1ccc(S(=O)(=O)N2CCC(NC(=O)c3cnn(C)c3)CC2)cc1
High
N[C@H]1CC[C@H](NC(=O)c2ccc3[nH]c(=O)[nH]c3c2)CC1
Low
N[C@H]1CC[C@H](NC(=O)Cc2c[nH]c3ccccc23)CC1
High
N[C@H]1CC[C@H](NC(=O)c2ccc3c(c2)NC(=O)C3)CC1
Medium
N[C@H]1CC[C@H](NC(=O)c2cncc(Cl)c2)CC1
Medium

Inquiry: Hi there! Could you help me figure out the category for Cc1nc(-c2ccc(C(=O)N[C@H]3CC[C@H](NC(=O)CCN)CC3)cc2)no1 please?
Reply text: High

Inquiry: Hi there! Could you help me figure out the category for C[C@H](N)C(=O)N1CCC(O)(CNC(=O)c2ccc3c(c2)CC(=O)N3)CC1 please?
Reply text: Low

Inquiry: Hi there! Could you help me figure out the category for Nc1nccnc1C(=O)N[C@H]1CC[C@H](N)CC1 please?
Reply text: High

Inquiry: Hi there! Could you help me figure out the category for N[C@H]1CC[C@H](NC(=O)c2ccc3cc[nH]c3c2)CC1 please?
Reply text: High

Inquiry: Hi there! Could you help me figure out the category for NCCC(=O)N[C@H]1CC[C@H](NC(=O)c2cncc(F)c2)CC1 please?
Reply text: High

Inquiry: Hi there! Could you help me figure out the category for CCc1ccc(C(=O)Nc2ccc(CN)cc2)s1 please?
Reply text: High

Inquiry: Hi there! Could you help me figure out the category for Cc1cc(C(=O)N[C@H]2CC[C@H](N)CC2)n(-c2ccccc2)n1 please?
Reply text: High

Inquiry: Hi there! Could you help me figure out the category for Cc1n[nH]c(C)c1C(=O)N[C@H]1CC[C@H](NC(=O)CCN)CC1 please?
Reply text: High

Inquiry: Hi there! Could you help me figure out the category for CC(=O)c1cccc(C(=O)N[C@H]2CC[C@H](N)CC2)c1 please?
Reply text: Medium

Inquiry: Hi there! Could you help me figure out the category for CC(NC(=O)c1ccc2cc(N)ccc2c1)C1CCN(C(=O)[C@H](C)N)CC1 (stereo partly shown) please?
Reply text: High

Inquiry: Hi there! Could you help me figure out the category for Cn1nc(O)cc1C(=O)N[C@H]1CC[C@H](N)CC1 please?
Reply text: High

Inquiry: Hi there! Could you help me figure out the category for CCc1ccc(C(=O)N[C@H]2CC[C@H](N)CC2)s1 please?
Reply text: Low
